Test: clinical
Details: female, human, in vivo, sc, t1/2, arithmetic mean (terminal half-life), single s.c. T+Ai implant 80 mg/4 mg, women, n=11; anastrozole in plasma, testosterone in serum
experimental endpoint: half-life (days)
One number for each entry, in days.

// recorded half-life for C[C@]12CC[C@H]3[C@@H](CCC4=CC(=O)CC[C@@]43C)[C@@H]1CC[C@@H]2O [Testosterone, testosterone] : 42.8

----------
Test: clinical
Conditions: female, human, in vivo, sc, Tmax, median, single s.c. T+Ai implant 80 mg/4 mg, women, n=11; anastrozole in plasma, testosterone in serum
experimental endpoint: Tmax (h)
Give bare numbers, in h.

// recorded Tmax for CC(C)(C#N)c1cc(Cn2cncn2)cc(C(C)(C)C#N)c1 [Anastrozole] : 48.6
